src = ChEMBL document CHEMBL4425099

# Test method notes: Plasma concentration in Lewis rat model of MIA at 100 mg/kg, po bid administered post 3 days MIA induction measured after 4 hrs of last dosage on day 7
# Format: ADME, organism-based

[
  {
    "Mol": "Cn1ccnc1[C@]1(CNC(=O)c2cc3cc(C(F)(F)F)ccc3o2)NC(=O)NC1=O",
    "Reading unit": "µM",
    "concentration at 4 h": 11
  },
  {
    "Mol": "CCn1ccnc1[C@]1(CNC(=O)c2cc3cc(C(F)(F)F)ccc3o2)NC(=O)NC1=O",
    "Reading unit": "µM",
    "concentration at 4 h": 11
  },
  {
    "Mol": "Cc1cnc([C@]2(CNC(=O)c3cc4cc(C(F)(F)F)ccc4o3)NC(=O)NC2=O)n1C",
    "Reading unit": "µM",
    "concentration at 4 h": 31
  }
]
